So I've got a bunch of variants here, and I need their screen value values.
B1: ATXN2 peptide 911-926 (Ataxin-2), 16-mer library wild type / PABPC1 PABC (PABPC1 PABC domain, residues 544-623) (parent)
chain 1: KSTLNPNAKEFNPRSF
chain 2: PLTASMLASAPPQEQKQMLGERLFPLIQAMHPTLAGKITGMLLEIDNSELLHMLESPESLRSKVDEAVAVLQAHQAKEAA

Variants of: B1
Experiment: proteomic peptide phage display deep mutational scan (ProP-PD DMS): M13 P8 16-mer library selected against immobilised GST-tagged bait for four days (rounds), NGS of the eluted pools per day and pseudo-replica
Conditions: with PABPC1 PABC (PABPC1 PABC domain, residues 544-623); bait immobilised on MaxiSorp plates (10 µg), library pre-cleared on GST, 2 h binding at 4 °C, five washes; one round per day, days 1-4; value from days 2 and 3; scale: average fractional NGS count over selection days 2 and 3
// no unit, no text: just the number

Data point: chain 1 R14F ; screen value = 0.000523

Data point: chain 1 P13T ; screen value = 1.02e-05

Data point: chain 1 F11Y ; screen value = 0.000235

Data point: chain 1 N12H ; screen value = 0.000518

Data point: chain 1 F16S ; screen value = 0.000134

Data point: chain 1 F16W ; screen value = 8.6e-05

Data point: chain 1 P6L ; screen value = 0.000389

Data point: chain 1 N7E ; screen value = 0.000331

Data point: chain 1 P13V ; screen value = 0.031

Data point: chain 1 T3W ; screen value = 0.000105

Data point: chain 1 E10T ; screen value = 0.000321

Data point: chain 1 F11W ; screen value = 0.000158

Data point: chain 1 N12A ; screen value = 0.00161

Data point: chain 1 N7M ; screen value = 0.000289

Data point: chain 1 S15T ; screen value = 4.17e-05

Data point: chain 1 K9A ; screen value = 0.000101

Data point: chain 1 N5A ; screen value = 0

Data point: chain 1 N12L ; screen value = 0

Data point: chain 1 K9L ; screen value = 0.00284

Data point: chain 1 R14G ; screen value = 0.0017

Data point: chain 1 N12I ; screen value = 0.000365

Data point: chain 1 A8R ; screen value = 0

Data point: chain 1 R14S ; screen value = 0.00103

Data point: chain 1 S15A ; screen value = 0.000153

Data point: chain 1 P13I ; screen value = 0.000517

Data point: chain 1 K9P ; screen value = 0.000159

Data point: chain 1 S15E ; screen value = 0.000122

Data point: chain 1 E10R ; screen value = 0

Data point: chain 1 S15N ; screen value = 0.000583

Data point: chain 1 L4Y ; screen value = 0

Data point: chain 1 F16A ; screen value = 0.00041

Data point: chain 1 N12V ; screen value = 0.00267

Data point: chain 1 S15Q ; screen value = 0

Data point: chain 1 N12Q ; screen value = 0.000365

Data point: chain 1 E10H ; screen value = 0.000717

Data point: chain 1 K9I ; screen value = 0.0153

Data point: chain 1 N7H ; screen value = 0.000328

Data point: chain 1 P13L ; screen value = 0.00026

Data point: chain 1 T3K ; screen value = 0

Data point: chain 1 S15P ; screen value = 0.000243

Data point: chain 1 R14E ; screen value = 0.000187

Data point: chain 1 R14Y ; screen value = 0.000722

Data point: chain 1 F16D ; screen value = 0.000103

Data point: chain 1 R14H ; screen value = 0.000471

Data point: chain 1 S2H ; screen value = 0.00026

Data point: chain 1 N12G ; screen value = 0.000277
